Origin of the recorded values: paper PMC10567728

biological target: uPAR (Homo sapiens, UniProt Q03405); construct: Recombinant human uPAR^1–283 was expressed; made in house; host or cells: Drosophila melanogaster S2 cells; assay: Nano-DSF thermal stability of uPAR•peptide complexes; settings: 15 µM uPAR, 30 µM peptide, PBS pH 7.4, n = 3
Sequence (Q03405 23-305): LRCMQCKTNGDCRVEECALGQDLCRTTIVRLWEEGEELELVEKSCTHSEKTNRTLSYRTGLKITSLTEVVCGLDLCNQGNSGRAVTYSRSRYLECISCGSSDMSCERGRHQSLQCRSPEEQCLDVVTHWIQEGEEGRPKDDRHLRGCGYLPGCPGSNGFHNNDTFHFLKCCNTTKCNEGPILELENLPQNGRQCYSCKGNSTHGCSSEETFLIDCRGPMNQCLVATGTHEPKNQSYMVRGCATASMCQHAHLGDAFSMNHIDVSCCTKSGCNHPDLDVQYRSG
Non-standard residues stand in square brackets, D forms with d. Residues, ends and D or L forms follow the SMILES beside them. *: point of attachment. DOTA = O=C(O)CN1CCN(CC(=O)O)CCN(CC(=O)*)CCN(CC(=O)O)CC1; Cha = N[C@@H](CC1CCCCC1)C(=O)O
measurement-label: Tm (apparent melting temperature of uPAR•peptide complex) (°C)

- molecule: "CC(C)C[C@H](NC(=O)[C@H](Cc1ccc(O)cc1)NC(=O)[C@@H](CCCNC(=N)N)NC(=O)[C@@H](CO)NC(=O)[C@H](Cc1ccccc1)NC(=O)[C@H](CC1CCCCC1)NC(=O)[C@H](CC(=O)O)NC(=O)CNC(=O)CNC(=O)[C@@H](CO)NC(=O)CNC(=O)[C@H](CCC(=O)O)NC(=O)[C@H](CCC(=O)O)NC(=O)CN1CCN(CC(=O)O)CCN(CC(=O)O)CCN(CC(=O)O)CC1)C(=O)N[C@@H](Cc1c[nH]c2ccccc12)C(=O)N[C@@H](CO)C(=O)O [4b] ({DOTA}-EEG[dS]GGD[Cha]F[dS][dR]YLWS-OH)"
  system: "uPAR (Homo sapiens, UniProt Q03405)"
  assay-result: 55.6

###

Entries annotated with measured kon
Molecular target: uPAR (Homo sapiens, UniProt Q03405)
Construct: Recombinant human uPAR^1–283 was expressed; made in house; host or cells: Drosophila melanogaster S2 cells
Assay: SPR real-time binding kinetics, peptides in solution and immobilised uPAR
Conditions: single cycle SPR, immobilised uPAR, 20 °C; read-out: kon
Experimental: The real-time binding kinetics of uPAR•peptide interactions were measured with SPR using a Biacore T200™(Cytiva); essentially as described in[56],[77]. […] The binding kinetics for the peptides to immobilised uPAR were measured using a single cycle protocol. […] The kinetic rate constants (kon and koff) were determined by non-linear regression fitting of the curves to the simple bimolecular interaction model (BiacoreT200 Evaluation™ 3.0 software).
Positions of bridges follow the written chain, without caps; N, C: chain ends. Non-standard residues stand in square brackets, D forms with d. Residues, ends and D or L forms follow the SMILES beside them. *: point of attachment. DOTA = O=C(O)CN1CCN(CC(=O)O)CCN(CC(=O)*)CCN(CC(=O)O)CC1; Cha = N[C@@H](CC1CCCCC1)C(=O)O

- compound: "CC(C)C[C@@H]1NC(=O)[C@H](Cc2ccc(O)cc2)NC(=O)[C@H](NC(=O)[C@@H](CO)NC(=O)[C@H](Cc2ccccc2)NC(=O)[C@H](CC2CCCCC2)NC(=O)[C@H](CC(=O)O)NC(=O)CNC(=O)CNC(=O)[C@@H](CO)NC(=O)CNC(=O)[C@H](CCC(=O)O)NC(=O)[C@H](CCC(=O)O)NC(=O)CN2CCN(CC(=O)O)CCN(CC(=O)O)CCN(CC(=O)O)CC2)CSSC[C@@H](C(N)=O)NC(=O)[C@H](Cc2c[nH]c3ccccc23)NC1=O [11b] ({DOTA}-EEG[dS]GGD[Cha]F[dS][dC]YLWC-NH2; disulfide 11-15)"
  kon [M⁻¹ s⁻¹]: 717000
- compound: "CC(C)C[C@@H]1NC(=O)[C@H](Cc2ccc(O)cc2)NC(=O)[C@H](NC(=O)[C@@H](CO)NC(=O)[C@H](Cc2ccccc2)NC(=O)[C@H](CC2CCCCC2)NC(=O)[C@@H](N)CC(=O)O)CSSC[C@@H](C(=O)O)NC(=O)[C@H](Cc2c[nH]c3ccccc23)NC1=O [compound 3] (H-D[Cha]F[dS][dC]YLWC-OH; disulfide 5-9; N-terminus assumed)"
  kon [M⁻¹ s⁻¹]: "1.1e+06"
- compound: "CC(C)C[C@H](NC(=O)[C@H](Cc1ccc(O)cc1)NC(=O)[C@@H](CCCNC(=N)N)NC(=O)[C@@H](CO)NC(=O)[C@H](Cc1ccccc1)NC(=O)[C@H](CC1CCCCC1)NC(=O)[C@H](CC(=O)O)NC(=O)CN1CCN(CC(=O)O)CCN(CC(=O)O)CCN(CC(=O)O)CC1)C(=O)N[C@@H](Cc1c[nH]c2ccccc12)C(=O)N[C@@H](CO)C(N)=O"
  kon [M⁻¹ s⁻¹]: 490000
- compound: "CC(C)C[C@H](NC(=O)[C@H](Cc1ccc(O)cc1)NC(=O)[C@@H](CCCNC(=N)N)NC(=O)[C@@H](CO)NC(=O)[C@H](Cc1ccccc1)NC(=O)[C@H](CC1CCCCC1)NC(=O)[C@H](CC(=O)O)NC(=O)CNC(=O)CNC(=O)[C@@H](CO)NC(=O)CNC(=O)[C@H](CCC(=O)O)NC(=O)[C@H](CCC(=O)O)NC(=O)CN1CCN(CC(=O)O)CCN(CC(=O)O)CCN(CC(=O)O)CC1)C(=O)N[C@@H](Cc1c[nH]c2ccccc12)C(=O)N[C@@H](CO)C(=O)O [4b] ({DOTA}-EEG[dS]GGD[Cha]F[dS][dR]YLWS-OH)"
  kon [M⁻¹ s⁻¹]: 213000
- compound: "CC(C)C[C@H](NC(=O)[C@H](Cc1ccc(O)cc1)NC(=O)[C@@H](CCCNC(=N)N)NC(=O)[C@@H](CO)NC(=O)[C@H](Cc1ccccc1)NC(=O)[C@H](CC1CCCCC1)NC(=O)[C@@H](N)CC(=O)O)C(=O)N[C@@H](Cc1c[nH]c2ccccc12)C(=O)N[C@@H](CO)C(=O)O"
  kon [M⁻¹ s⁻¹]: "1.57e+06"
- compound: "CC(C)C[C@@H]1NC(=O)[C@H](Cc2ccc(O)cc2)NC(=O)[C@H](NC(=O)[C@@H](CO)NC(=O)[C@H](Cc2ccccc2)NC(=O)[C@H](CC2CCCCC2)NC(=O)[C@H](CC(=O)O)NC(=O)CNC(=O)CNC(=O)[C@@H](CO)NC(=O)CNC(=O)[C@H](CCC(=O)O)NC(=O)[C@@H](N)CCC(=O)O)CSSC[C@@H](C(N)=O)NC(=O)[C@H](Cc2c[nH]c3ccccc23)NC1=O [compound 11] (H-EEG[dS]GGD[Cha]F[dS][dC]YLWC-NH2; disulfide 11-15; N-terminus assumed)"
  kon [M⁻¹ s⁻¹]: 500000
- compound: "CC(C)C[C@H](NC(=O)[C@H](Cc1ccc(O)cc1)NC(=O)[C@@H](CCCNC(=N)N)NC(=O)[C@@H](CO)NC(=O)[C@H](Cc1ccccc1)NC(=O)[C@H](CC1CCCCC1)NC(=O)[C@H](CC(=O)O)NC(=O)CNC(=O)CNC(=O)[C@@H](CO)NC(=O)CNC(=O)[C@H](CCC(=O)O)NC(=O)[C@@H](N)CCC(=O)O)C(=O)N[C@@H](Cc1c[nH]c2ccccc12)C(=O)N[C@@H](CO)C(=O)O [compound 4] (H-EEG[dS]GGD[Cha]F[dS][dR]YLWS-OH; N-terminus assumed)"
  kon [M⁻¹ s⁻¹]: 280000
- compound: "CC(C)C[C@@H]1NC(=O)[C@H](Cc2ccc(O)cc2)NC(=O)[C@H](NC(=O)[C@@H](CO)NC(=O)[C@H](Cc2ccccc2)NC(=O)[C@H](CC2CCCCC2)NC(=O)[C@@H](N)CC(=O)O)CSSC[C@@H](C(N)=O)NC(=O)[C@H](Cc2c[nH]c3ccccc23)NC1=O [compound 9] (H-D[Cha]F[dS][dC]YLWC-NH2; disulfide 5-9; N-terminus assumed)"
  kon [M⁻¹ s⁻¹]: 712000
- compound: "CC(C)C[C@H](NC(=O)[C@H](Cc1ccc(O)cc1)NC(=O)[C@@H](CCCNC(=N)N)NC(=O)[C@@H](CO)NC(=O)[C@H](Cc1ccccc1)NC(=O)[C@H](CC1CCCCC1)NC(=O)[C@H](CC(=O)O)NC(=O)CNC(=O)CNC(=O)[C@@H](CO)NC(=O)CNC(=O)[C@H](CCC(=O)O)NC(=O)[C@@H](N)CCC(=O)O)C(=O)N[C@@H](Cc1c[nH]c2ccccc12)C(=O)N[C@@H](CO)C(N)=O [compound 10] (H-EEG[dS]GGD[Cha]F[dS][dR]YLWS-NH2; N-terminus assumed)"
  kon [M⁻¹ s⁻¹]: 595000
- compound: "CC(C)C[C@@H]1NC(=O)[C@H](Cc2ccc(O)cc2)NC(=O)[C@H](NC(=O)[C@@H](CO)NC(=O)[C@H](Cc2ccccc2)NC(=O)[C@H](CC2CCCCC2)NC(=O)[C@H](CC(=O)O)NC(=O)CNC(=O)CNC(=O)[C@@H](CO)NC(=O)CNC(=O)[C@H](CCC(=O)O)NC(=O)[C@@H](N)CCC(=O)O)CSSC[C@@H](C(=O)O)NC(=O)[C@H](Cc2c[nH]c3ccccc23)NC1=O [compound 6] (H-EEG[dS]GGD[Cha]F[dS][dC]YLWC-OH; disulfide 11-15; N-terminus assumed)"
  kon [M⁻¹ s⁻¹]: 611000
